Test system: HSkMC
Test: cytotoxicity call (relative viability < 0.9)
Conditions: 10 µM
Out of some 39,000 compounds screened, about 1,500 (3.8%) were called active. Shown is part of a subset that was picked to be rich in actives.
Readout Kind: cytotoxicity call

C[C@@H]1CCCCO[C@@H](CN(C)Cc2ccc(Cl)c(Cl)c2)[C@H](C)CN([C@H](C)CO)C(=O)c2cc(NS(=O)(=O)c3ccccc3)ccc2O1 active
C[C@@H]1CN([C@H](C)CO)C(=O)c2cc(NC(=O)Cc3ccccc3)ccc2O[C@@H](C)CCCCO[C@@H]1CN(C)S(=O)(=O)c1cccs1 inactive
COC(=O)C[C@H]1C=C[C@H](N)[C@H](CO)O1 inactive
C[C@H]1CN([C@@H](C)CO)C(=O)c2cc(-c3cccnc3)cnc2O[C@@H]1CN(C)Cc1ccc(-c2ccccc2)cc1 inactive

**Query** Request - read-out cytotoxicity call | tested on HSkMC | compound `C[C@@H]1CCCCO[C@@H](CN(C)Cc2ccc(Cl)c(Cl)c2)[C@H](C)CN([C@@H](C)CO)C(=O)c2cc(NS(=O)(=O)c3ccccc3)ccc2O1`
**Result** active

**Query** Request - read-out cytotoxicity call | tested on HSkMC | compound `C[C@@H]1CN([C@@H](C)CO)C(=O)Cc2cc(NC(=O)CCN3CCOCC3)ccc2O[C@H]1CN(C)S(=O)(=O)c1cccs1`
**Result** inactive

**Query** Request - read-out cytotoxicity call | tested on HSkMC | compound `C[C@@H]1CN([C@H](C)CO)C(=O)c2cccc(NS(=O)(=O)c3ccc(F)cc3)c2O[C@@H]1CN(C)S(=O)(=O)c1ccc(F)cc1`
**Result** inactive

**Query** Request - read-out cytotoxicity call | tested on HSkMC | compound `CC(C)NC(=O)N1Cc2cc(C(=O)NC3CCCCC3)nc(-c3cccc(-c4cccnc4)c3)c2[C@@H]1CCO`
**Result** inactive

**Query** Request - read-out cytotoxicity call | tested on HSkMC | compound `CCCNC(=O)c1cc2c(c(-c3cccc(-c4cc5ccccc5o4)c3)n1)[C@H](CCO)N(C(=O)NC(C)C)C2`
**Result** inactive

* * *

Test system: HSkMC (human skeletal muscle cells)
Experiment: cytotoxicity call (relative viability < 0.9)
Conditions: 10 µM
Screen size: about 39,000 compounds; about 1,500 (3.8%) were called active. What follows is part of a selection rich in actives, with near analogues and random picks from the rest.
Outcomes you can answer with include only these: active, inactive

C[C@H](CO)N1C[C@H](C)[C@H](CN(C)Cc2ccc(Oc3ccccc3)cc2)Oc2c(NC(=O)Nc3ccc(C(F)(F)F)cc3)cccc2C1=O active
C[C@H]1CN([C@@H](C)CO)C(=O)c2cccc(NC(=O)Nc3ccc(C(F)(F)F)cc3)c2O[C@@H]1CN(C)Cc1ccc(Oc2ccccc2)cc1 inactive
COc1ccc(NC(=O)Nc2ccc3c(c2)C(=O)N([C@@H](C)CO)C[C@H](C)[C@H](CN(C)Cc2ccc(C(F)(F)F)cc2)OCCCC[C@H](C)O3)cc1 inactive
C[C@@H]1CN([C@@H](C)CO)C(=O)c2cccc(NC(=O)Nc3ccc(C(F)(F)F)cc3)c2O[C@@H]1CN(C)Cc1ccc(Oc2ccccc2)cc1 active

**Query** Identify the outcome logged in this assay for the compound shown: `C[C@H]1CN([C@@H](C)CO)C(=O)c2cccc(NC(=O)Nc3ccc(C(F)(F)F)cc3)c2O[C@H]1CN(C)Cc1ccccc1`
**Result** inactive

**Query** Identify the outcome logged in this assay for the compound shown: `C[C@@H]1CN([C@H](C)CO)C(=O)c2cccc(NC(=O)Nc3ccc(C(F)(F)F)cc3)c2O[C@H]1CN(C)Cc1ccc(Oc2ccccc2)cc1`
**Result** active
